Molecular target: UniProt P23743
Sequence (P23743 whole entry, looked up): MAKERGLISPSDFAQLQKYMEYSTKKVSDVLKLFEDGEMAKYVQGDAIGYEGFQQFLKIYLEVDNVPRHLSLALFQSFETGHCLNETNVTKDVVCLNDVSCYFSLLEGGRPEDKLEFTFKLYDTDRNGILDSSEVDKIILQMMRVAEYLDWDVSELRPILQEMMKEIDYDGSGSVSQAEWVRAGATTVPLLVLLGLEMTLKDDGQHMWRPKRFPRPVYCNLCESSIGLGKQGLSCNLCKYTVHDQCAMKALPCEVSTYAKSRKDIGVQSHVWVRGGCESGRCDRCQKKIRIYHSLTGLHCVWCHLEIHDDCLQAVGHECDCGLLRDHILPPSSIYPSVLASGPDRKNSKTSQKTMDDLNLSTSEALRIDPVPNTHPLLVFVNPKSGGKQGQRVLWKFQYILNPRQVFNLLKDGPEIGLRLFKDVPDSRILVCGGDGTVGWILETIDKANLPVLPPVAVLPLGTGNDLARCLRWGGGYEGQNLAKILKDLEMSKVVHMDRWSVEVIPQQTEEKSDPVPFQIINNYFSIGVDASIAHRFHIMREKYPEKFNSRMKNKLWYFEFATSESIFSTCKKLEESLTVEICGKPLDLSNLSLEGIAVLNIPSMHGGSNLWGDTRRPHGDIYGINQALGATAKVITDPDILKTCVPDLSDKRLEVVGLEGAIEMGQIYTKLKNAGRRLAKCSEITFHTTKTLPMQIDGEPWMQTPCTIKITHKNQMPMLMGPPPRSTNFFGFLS
Test: biochemical
Assay type: biochemical
Details: read-out: DGKα LIPGLO IC50
# key: entry, value: IC50
The reply should be a number in µM, with the unit left off.

Below: 2 compounds and their reported IC50.
>>> print(df.to_string())
                                   compound  measurement_name  test_value
0  C[C@@H]1CN(c2cc(=O)n(C)c3ccc(C#N)nc23)CC[C@@H]1Oc1ccc(OC(C)(C)C)cc1 (single isomer, unassigned) [Example 174]              IC50         1.6
1  CCC(C)(C)c1ccc(O[C@@H]2CCN(c3cc(=O)n(C)c4ccc(C#N)nc34)C[C@H]2C)cc1              IC50        0.03

Let us examine a further case.
Value of IC50 reported for the compound `CC[C@@H]1CN(c2cc(=O)n(C)c3ccc(C#N)nc23)CC[C@H]1Oc1ccc(OC(C)(C)C)cc1` is 0.36

====

Tested on: human venous whole blood, CD8 positive population (pERK)
Test: DGK human whole blood pERK assay
Assay type: cell-based
Conditions: human whole blood pERK; read-out: DGK HWB
MEASUREMENT_NAME: pEC50
Lab note — pEC50 values are minus log10 of concentrations in M.

                                   compound  measurement_name  test_value
0  CCO[C@H]1CN(c2cc(=O)n(C)c3ccc(C#N)nc23)CC[C@@H]1Oc1ccc(C(F)(F)F)cc1 [Example 343]             pEC50        6.49
1  CC(C)Oc1ccc(O[C@@H]2CCN(c3cc(=O)n(C)c4ccc(C#N)nc34)C[C@H]2C)nc1 (single isomer, unassigned)             pEC50        5.41

Let us examine a further case.
Given the compound CC[C@@H]1CN(c2cc(=O)n(C)c3ccc(C#N)nc23)CC[C@H]1Oc1ccc(OC(C)C)cn1 (single isomer, unassigned) [Example 194] and test system human venous whole blood, CD8 positive population (pERK), the measured pEC50 is 5.52

====

Test system: Human venous whole blood (IFN-γ)
Experiment: Human whole blood IFN-γ assay
Format: cell-based
Conditions: Homo sapiens, 24 h, human whole blood, anti-CD3 plus anti-CD28, 24 hours; read-out: INFg Whole Blood Normalized Agonist EC50
MEASUREMENT_NAME: EC50 (µM)
The reply should be a number in µM, with the unit left off.

Below: 2 molecules and their reported EC50.
In [3]: df
Out[3]:
                                   molecule  measurement_name  test_value
0  CC[C@@H]1CN(c2cc(=O)n(C)c3ccc(C#N)nc23)CC[C@H]1Oc1cccc(C(F)(F)F)c1 [Example 140]              EC50         1.2
1  Cn1c(=O)c(C#N)c(N2CCC(Oc3ccc(F)c(F)c3)CC2)c2nc(Cl)ccc21 [Example 12]              EC50           5

Value of EC50 reported for the molecule C[C@@H]1CN(c2cc(=O)n(C)c3ccc(C#N)nc23)CC[C@H]1Oc1ccc(C2CCCC2)cc1 [Example 100] is 2.7

Value of EC50 reported for the molecule C[C@@H]1CN(c2cc(=O)n(C)c3ccc(C#N)nc23)CC[C@H]1Oc1ccc(F)cc1 (single isomer, unassigned) [Example 129] is 20

Value of EC50 reported for the molecule Cn1c(=O)cc(N2CCC(Oc3ccc(OC(C)(C)C)cc3)CC2)c2nc(C#N)ccc21 [Example 65] is 6.8

Value of EC50 reported for the molecule C[C@@H]1CN(c2cc(=O)n(C)c3ccc(C#N)nc23)CC[C@H]1Oc1c(F)cccc1C(F)(F)F (racemic) [Example 124] is 20

Value of EC50 reported for the molecule C[C@@H]1CN(c2cc(=O)n(C)c3ccc(C#N)nc23)CC[C@H]1Oc1c(F)cccc1F (single isomer, unassigned) [Example 126] is 20

These data points were gathered from patent US11964973B2.
